Biological target: Adrenergic receptor alpha-1 (Rattus norvegicus, UniProt P15823+P23944+P43140)
Sequence (P15823 whole entry): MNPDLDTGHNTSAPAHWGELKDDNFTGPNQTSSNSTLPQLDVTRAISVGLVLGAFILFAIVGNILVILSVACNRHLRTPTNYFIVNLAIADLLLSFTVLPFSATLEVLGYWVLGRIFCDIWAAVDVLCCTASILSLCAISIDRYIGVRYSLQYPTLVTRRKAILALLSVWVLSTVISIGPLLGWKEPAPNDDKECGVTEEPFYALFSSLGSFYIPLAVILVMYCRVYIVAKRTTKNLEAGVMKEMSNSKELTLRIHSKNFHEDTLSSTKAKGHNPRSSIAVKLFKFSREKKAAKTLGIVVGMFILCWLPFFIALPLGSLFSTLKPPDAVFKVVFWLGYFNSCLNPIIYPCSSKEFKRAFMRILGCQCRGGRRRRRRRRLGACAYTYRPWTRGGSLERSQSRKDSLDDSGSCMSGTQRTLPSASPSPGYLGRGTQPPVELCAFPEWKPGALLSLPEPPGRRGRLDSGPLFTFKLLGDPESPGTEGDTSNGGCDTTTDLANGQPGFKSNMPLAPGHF
Sequence (P23944 whole entry): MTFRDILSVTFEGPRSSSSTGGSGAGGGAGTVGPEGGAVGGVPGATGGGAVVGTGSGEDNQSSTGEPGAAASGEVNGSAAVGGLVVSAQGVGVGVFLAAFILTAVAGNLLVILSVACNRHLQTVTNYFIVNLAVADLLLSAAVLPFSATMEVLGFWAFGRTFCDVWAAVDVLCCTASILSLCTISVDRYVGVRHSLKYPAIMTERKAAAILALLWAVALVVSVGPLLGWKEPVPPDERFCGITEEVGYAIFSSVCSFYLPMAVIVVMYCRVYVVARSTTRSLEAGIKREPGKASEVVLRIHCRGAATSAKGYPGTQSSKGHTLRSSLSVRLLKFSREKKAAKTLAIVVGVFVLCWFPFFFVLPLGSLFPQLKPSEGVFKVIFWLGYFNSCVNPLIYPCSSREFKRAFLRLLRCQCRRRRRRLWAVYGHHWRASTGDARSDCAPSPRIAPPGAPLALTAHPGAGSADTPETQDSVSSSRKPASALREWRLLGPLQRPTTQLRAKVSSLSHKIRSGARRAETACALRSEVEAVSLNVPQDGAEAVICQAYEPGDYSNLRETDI
Sequence (P43140 whole entry): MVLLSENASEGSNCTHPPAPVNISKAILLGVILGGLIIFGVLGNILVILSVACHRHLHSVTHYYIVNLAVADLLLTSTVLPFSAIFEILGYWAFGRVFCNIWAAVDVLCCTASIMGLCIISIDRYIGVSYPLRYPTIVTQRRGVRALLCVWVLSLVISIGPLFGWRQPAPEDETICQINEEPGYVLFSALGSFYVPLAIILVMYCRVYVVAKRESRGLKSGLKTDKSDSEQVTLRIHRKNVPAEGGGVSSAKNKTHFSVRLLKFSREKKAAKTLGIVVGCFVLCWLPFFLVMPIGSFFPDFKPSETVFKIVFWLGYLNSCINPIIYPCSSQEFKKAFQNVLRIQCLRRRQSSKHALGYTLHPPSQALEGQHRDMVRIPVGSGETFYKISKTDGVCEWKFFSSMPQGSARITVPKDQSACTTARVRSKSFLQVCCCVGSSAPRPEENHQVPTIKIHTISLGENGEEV
Assay: Ability to inhibit [3H]WB-4101 binding to alpha-1 adrenergic receptor was determined in rat
quantity.measured: Ki
Output should be the measured figure followed by the unit it is expressed in.

Guide cases for Ki, answers given:
compound: O=C(NCCN1CCC(O)(c2ccc(Cl)cc2)CC1)c1ccc(F)cc1
quantity.measured: Ki
result: 250 nM
//
compound: CCN1CCC[C@H]1CNC(=O)c1cc(S(=O)(=O)CC)ccc1OC
quantity.measured: Ki
result: 1100 nM
//
compound: COc1ccccc1N1CCN(CCCC(=O)c2ccc(F)cc2)CC1
quantity.measured: Ki
result: 0.87 nM
//
compound: COc1ccccc1N1CCN(Cc2ccc(-c3ccc(F)cc3)[nH]2)CC1
quantity.measured: Ki
result: 57 nM

The value of Ki measured for the compound `OC1(c2ccc(Cl)cc2)CCN(Cc2ccc(-c3ccc(F)cc3)[nH]2)CC1` turned out to be 1600 nM

The value of Ki measured for the compound CCN1CCC[C@H]1CNC(=O)c1cc(S(N)(=O)=O)ccc1OC [LEVOSULPIRIDE] turned out to be 15000 nM

The value of Ki measured for the compound `COc1ccccc1N1CCN(CCNC(=O)c2ccc(F)cc2)CC1` turned out to be 9 nM
